ASSAY DETAILS: Inhibition of c-Met in human EBC-1 cells assessed as reduction in cell proliferation after 72 hrs by SRB or MTT assay
In this section, each of the compounds is paired with its reported IC50.
MEASURED ATTRIBUTE: IC50 (nM)

MOL SMILES	UNIT DESCRIPTOR	MEASURED
Cn1cc(-c2ccc3nnc(C(F)(F)c4ccc5ncccc5c4)n3n2)cn1	nM	5.5
Fc1ccc(-c2cnc3nnc(C(F)(F)c4ccc5ncccc5c4)n3n2)cc1	nM	0.85

----------
ASSAY DETAILS: Inhibition of TPR-MET in mouse BAF3 cells assessed as reduction in cell proliferation after 72 hrs by SRB or MTT assay
MEASURED ATTRIBUTE: IC50 (nM)

MOL SMILES	MEASURED
Cn1cc(-c2ccc3nnc(C(F)(F)c4ccc5ncccc5c4)n3n2)cn1	8.6

These entries and their values trace back to BindingDB's records for doi:10.1016/j.ejmech.2016.03.076.
